Reference source for all entries: the nanobody polyreactivity screen of Harvey et al. (2022)

test: yeast display, Sf9 membrane polyspecificity reagent, FACS + sequencing; frameworks hold sequencing errors

[
  {
    "querySequence": "QVQLVESGGGLVQAGGSLRLSCAASGRIFRYYAMGWYRQAPGKERELVAGISWRGSSTYYADSVKGRFTISRDNAKNTVYLQMNSLKPADTAVYYCNRDLSIIPVTGGRFYYWGQGTQVTVSS",
    "polyreactivity (PSR sort gate)": "high polyreactivity"
  },
  {
    "querySequence": "QVQLVESGGGLVQAGGSLRLSCAASGITFDGYAMGWYRQAPGKEREFVAAISRSGTSTYYADSVKGRFTISRDNAKNTVYLQMNSLKPEDSAVYYCNKKWPRLYYYWGQGTQVTVSS",
    "polyreactivity (PSR sort gate)": "high polyreactivity"
  },
  {
    "querySequence": "QVQLVESGGGLVQEGGSLRLICAASGRTLNSYDMGWYRQEPGKERELVAAISWSGTNTYYSDSVKGRFTISRDNAKNTVYLQMNCLKPEDTAVYYCNAVTKATRYEYWGQGTQVTVSS",
    "polyreactivity (PSR sort gate)": "high polyreactivity"
  },
  {
    "querySequence": "QVQLVESGGGLFQAGGSLRLSCAASGSTFPYNAMGGYRQAPGKERELVAAINSGATTYYADSVKGRFTISRDNAKNTVYLQMNSLKPEDTAVYYCAAEGYASSSEYDYWGQGTQVTVSS",
    "polyreactivity (PSR sort gate)": "low polyreactivity"
  },
  {
    "querySequence": "QVHLVESGGGLVQAGGSLRISCAAYGRTFRYYAMGCYRQAPAKDRELVAGISSSGDRTYFADSVKGRFTISRDTAKNTVYLQMNSLKPEDTAVYYCAADRGARGDYYWGQGTQVTVSS",
    "polyreactivity (PSR sort gate)": "high polyreactivity"
  },
  {
    "querySequence": "QVQLVESGVGLVQAGGTLRISCAASGSTLPGYAMGWYRPAPGKERELVAAITSRGGTTYYADSVKGRFTISRDNAKNTVYLQMNSLKPEDTAVYYCAAEVYYRSRVYPYYYSYDYWGQGTQVTVSS",
    "polyreactivity (PSR sort gate)": "high polyreactivity"
  },
  {
    "querySequence": "QVQLVESGGGLFQAGGSLRLSCAASGGTFDWYTMGWYRQAPGKERELVADITSGGSTYYADSVKGRFTISRDNAKNTVYLQMNSLKPEDTALYYCNKRDKVTYSYDYWGQGTQVTVSS",
    "polyreactivity (PSR sort gate)": "high polyreactivity"
  },
  {
    "querySequence": "QVQLVESGGGLVQAGGSLRLSCAASGRIFQTNVMGWYRQAPGKEKELVAAISYRGGTTYYEDSVKARFTISRDNAQNTVYLPMYSLYPEDTAVYYCAALHYRIRRTGMDYWGQGTQVTVSS",
    "polyreactivity (PSR sort gate)": "low polyreactivity"
  },
  {
    "querySequence": "QVQLVESGGGLVQAGGSLRLICAASGITFTGYAMGWYTQAPGKERELVAVISETGGSTYADSVKGRFTISRDNAKNTVYLQMNSLKPEDTAVYYCAARLWWPYSTAWAKMDYWGQGTQVTVSS",
    "polyreactivity (PSR sort gate)": "low polyreactivity"
  },
  {
    "querySequence": "QVQLVESGGGLVQAGGSLRLSCAASGSIFWYNAMGWYRQAPGKEREFVATITNGTTTNYADSVKGRFTISCDNAKNTVYLQMNSLKPEDTAVYFCAVTGVYVKYDYWGQGTHVTVSS",
    "polyreactivity (PSR sort gate)": "low polyreactivity"
  },
  {
    "querySequence": "QVQIVESGGGLVQAGGRLRLSCAASGGIFKTYPMGWYRQAPGKERELVARINSRGGRTYYADSVKGRFTISRDYAKKTVYLQMNSLKPEATAVYYCAVRNPRYFNEYDYWGQGTQVTVSS",
    "polyreactivity (PSR sort gate)": "low polyreactivity"
  }
]
